Source: PubChem BioAssay (NCI)

Overview of recorded growth inhibition for various molecules
Assay: NCI Yeast Anticancer Drug Screen. Data for the mgt1 strain (AID 153)
Conditions: S. cerevisiae mgt1 mutant growth inhibition; at 3.7 µM; hits give high values
About 79,000 compounds went through this panel and 15% of them were active in at least one assay; those are over-represented in the sample as a whole.

- molecule: "COc1ccc(C(=O)NCCN(C)C)c2nc3ccccc3cc12"
  valueUnit: "%"
  growth inhibition: 19
- molecule: "CC[C@@]1(OC(=O)CN(C)C)C(=O)OCc2c1cc1n(c2=O)Cc2cc3ccccc3nc2-1"
  valueUnit: "%"
  growth inhibition: 1
- molecule: "CC1(C)CC(=O)C(C(CC(c2ccccc2)c2cc3c(cc2O)OCO3)C2=C(O)CC(C)(C)CC2=O)=C(O)C1 (stereo not given)"
  valueUnit: "%"
  growth inhibition: 1
- molecule: "Nc1ccc2ncc(Nc3ccc(Cl)c(Cl)c3)nc2c1"
  valueUnit: "%"
  growth inhibition: -27
- molecule: "CCCCCCCCCC/C=C\\CC(=O)O"
  valueUnit: "%"
  growth inhibition: -2
- molecule: "O=C(O)/C=C\\C(=O)NNc1ccc(Br)cc1"
  valueUnit: "%"
  growth inhibition: 32
- molecule: "O=[N+]([O-])c1cccc2nc3ccccc3c(NCCC[N+]3([O-])CCOCC3)c12"
  valueUnit: "%"
  growth inhibition: 5
- molecule: "O=S(=O)(O)CC[S][Sn]([S]CCS(=O)(=O)O)([c]1ccccc1)[c]1ccccc1"
  valueUnit: "%"
  growth inhibition: 45
- molecule: "c1ccc2cc(OCC3CO3)c(OCC3CO3)cc2c1 (stereo not given)"
  valueUnit: "%"
  growth inhibition: -25
- molecule: "CCOC(=O)c1sc2[n+](c1C)C(=O)/C(=C/c1cc(OC)c(OC)c(OC)c1)S2"
  valueUnit: "%"
  growth inhibition: 12
